target: PIM-1 (Homo sapiens (Human), UniProt P11309); experiment: PIM-1 Enzyme Assay; assay type: biochemical; conditions: dihydrochloride
Sequence (P11309 whole entry, species assumed): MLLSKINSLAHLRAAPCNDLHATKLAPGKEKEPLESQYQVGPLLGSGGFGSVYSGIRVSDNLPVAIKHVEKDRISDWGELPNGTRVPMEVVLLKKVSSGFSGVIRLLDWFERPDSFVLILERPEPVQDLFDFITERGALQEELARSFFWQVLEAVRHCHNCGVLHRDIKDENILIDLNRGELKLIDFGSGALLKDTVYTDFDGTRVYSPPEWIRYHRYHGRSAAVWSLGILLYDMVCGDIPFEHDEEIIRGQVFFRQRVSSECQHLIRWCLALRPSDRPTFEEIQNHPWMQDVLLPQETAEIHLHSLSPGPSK
Counter-ions that a name gives are not always drawn.
MEASUREMENT_KIND: pIC50
Note on pIC50: it is the negative log10 of concentration, concentration in mol/L.

For the compound FC1CNCCC1Oc1cccc2ccc(-c3nnc4ccccn34)nc12 (single isomer, unassigned) [Example 95, dihydrochloride] , give its measured pIC50 value. 8.01

For the compound FC1CNCCC1Oc1cccc2ccc(-c3nnc4ccccn34)nc12 (single isomer, unassigned) [Example 94, dihydrochloride] , give its measured pIC50 value. 7.71

For the compound FC1CNCCC1Oc1cccc2ccc(-c3nnc4ccccn34)nc12 (single isomer, unassigned) [Example 97, dihydrochloride] , give its measured pIC50 value. 7.31

For the compound FC1CNCCC1Oc1cccc2ccc(-c3nnc4ccccn34)nc12 (single isomer, unassigned) [Example 96, dihydrochloride] , give its measured pIC50 value. 7.97

----------
Provide the reported IC50 of each item.
molecular target: GST-tagged recombinant full-length human PIM-2 (Homo sapiens (Human), UniProt Q9P1W9); assay: PIM-2 Enzyme Assay; details: read-out: PIM-2 IC50; 4 μM ATP, […] PIM-2
Sequence (Q9P1W9 whole entry): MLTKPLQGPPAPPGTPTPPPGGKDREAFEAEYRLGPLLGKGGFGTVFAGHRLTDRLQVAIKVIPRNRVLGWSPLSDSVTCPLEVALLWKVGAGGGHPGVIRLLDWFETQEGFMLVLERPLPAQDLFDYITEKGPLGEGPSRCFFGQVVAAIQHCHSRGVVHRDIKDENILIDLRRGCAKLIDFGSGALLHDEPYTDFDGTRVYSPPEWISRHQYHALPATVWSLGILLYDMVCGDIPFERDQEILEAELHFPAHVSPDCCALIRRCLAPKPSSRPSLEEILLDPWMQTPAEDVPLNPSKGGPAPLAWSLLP
Where a name gives a salt, the structure may show the parent alone.
Express the result in nM but write the number alone.

For the compound `CC(C)(CN)COc1cccc2ccc(-c3nnc4ccccn34)nc12` , give its measured IC50 value. 49

For the compound Cc1ccc2nnc(-c3ccc4cccc(OC5CCNCCC5F)c4n3)n2c1 (single isomer, unassigned) , give its measured IC50 value. 352

For the compound `OC1(COc2cccc3ccc(-c4nnc5ccccn45)nc23)CCN(Cc2ccccc2)CC1` , give its measured IC50 value. 10000

For the compound CCCC(Oc1cccc2ccc(-c3nnc4ccccn34)nc12)[C@@H](CC)CN (some centres unmarked) , give its measured IC50 value. 1350

For the compound F[C@@H]1CNCC[C@@H]1Oc1cccc2ccc(-c3nnc4ccc(-c5ccccc5)cn34)nc12 (relative stereo) [Example 82, dihydrochloride] , give its measured IC50 value. 1040

For the compound `NCC(F)(F)COc1cccc2ccc(-c3nnc4ccccn34)nc12` , give its measured IC50 value. 182

For the compound `NC(=O)N1CCC(Oc2cccc3ccc(-c4nnc5ccccn45)nc23)CC1` , give its measured IC50 value. 1280

For the compound COc1ccc2nnc(-c3ccc4cccc(OCC5(F)CCNCC5)c4n3)n2c1 [Example 109, dihydrochloride] , give its measured IC50 value. 384

----------
molecular target: PIM-1 (Homo sapiens (Human), UniProt P11309); assay: PIM-1 Enzyme Assay; assay type: biochemical; conditions: 35 μM ATP, 0.25 nM PIM-1
Counter-ions that a name gives are not always drawn.
Provide the reported pIC50 of each item.
Note on pIC50: it is the negative log10 of concentration, concentration in mol/L.

Enter measured pIC50, system PIM-1 (Homo sapiens (Human), UniProt P11309), for the compound shown: CN1CCC(F)C(Oc2cccc3ccc(-c4nnc5ccccn45)nc23)CC1 (stereo not drawn) 8.89

Enter measured pIC50, system PIM-1 (Homo sapiens (Human), UniProt P11309), for the compound shown: FCCN1CCC(F)(COc2cccc3ccc(-c4nnc5ccccn45)nc23)CC1 [Example 105, dihydrochloride] 8.06

Enter measured pIC50, system PIM-1 (Homo sapiens (Human), UniProt P11309), for the compound shown: `c1cc(OCC2CCNCC2)c2nc(-c3nnc4ccccn34)ccc2c1` 8.70

Reference for the values: patent US8575145B2
